Exercise: state measured cytotoxicity at 10 µM for each of the molecules provided.
Assay: Toxicity liver stage against HepG2, at 10uM
Type: cell-based
Design: test concentration 10 uM, cell line HepG2-A16-CD81EGFP
Details: human, HepG2-A16-CD81EGFP cells; read-out: INHIBITION

Examples with their reported cytotoxicity at 10 µM follow.
Cc1ccccc1N1CCN(C(=O)Cn2ccnc2)CC1=O ... -1.86%
CCC(CNC(=O)N1CCOCC2(CCOCC2)C1)c1ccccc1 (centres undefined) ... 5.17%
O=C(NCCCc1nc(=O)[nH][nH]1)Nc1cccc(F)c1 ... -51.1%
Cc1ccnc(CC(C)N(C)c2cc(CCN)nc(C)n2)c1 (centres undefined) ... -48%
O=C(Nc1ccc(S(=O)(=O)Nc2c(F)cccc2F)cc1)N1CCCC1 ... 5.66%
COC(=O)CC(NC(=O)c1cccc(CS(C)(=O)=O)c1)c1cccs1 (centres undefined) ... -44.8%
Cc1nc([C@@H]2C[C@@H]3CCN(C(=O)c4ccnnc4)C[C@H]3O2)sc1C ... 2.68%
CC(C(=O)N1CCN(C(=O)c2ccc(F)cc2)CC1)n1ccnc1 (centres undefined) ... -2.2%
COCc1nc(CNc2cccc(-c3csc(C)n3)c2)cs1 ... 1.98%
CC(C)n1cnnc1CN(C)C(=O)c1ccc[nH]1 ... -0.371%

Please state, for each entry, its recorded cytotoxicity at 10 µM.
1. Cc1oc(C(C)C)cc1C(=O)N1C[C@@H]2CC[C@H]1CN(C(=O)N(C)C)C2
2. Cc1cc(CNS(C)(=O)=O)ccc1N(C)C
3. Cc1ccnc(C2CN(c3ncccn3)C2)n1
4. CC(C)OCCCNC(=O)CS(=O)(=O)Cc1cccc(Cl)c1
5. Cc1nn(C)cc1C1SCC(=O)Nc2c1c(O)nn2C(C)C (centres undefined)
6. C1CC(CN2C[C@@H]3CC[C@H]2CN(Cc2nnc(C4CC4)o2)C3)C1
7. CCS(=O)(=O)N1CCC(CSc2ccccc2)C1 (centres undefined)
8. COc1cccc(C(O)C(=O)N(C)CCc2ccccn2)c1 (centres undefined)

OUT:
1: -119%; 2: -11.5%; 3: 2.55%; 4: 5.44%; 5: 1.04%; 6: 1.19%; 7: 2.42%; 8: 0.413%

Fill in cytotoxicity at 10 µM for each of the 2 molecules listed.
1. Cc1ccc(CC(=O)N2CCCC(c3ccn[nH]3)C2)cn1 (centres undefined)
2. CCOc1ccccc1CNS(=O)(=O)c1ccc2c(c1)CCCC(=O)N2

OUT:
1: 0.691%; 2: 7.89%

Give cytotoxicity at 10 µM for all molecules that follow.
1. CCCN1CCc2nc(SCc3ccccc3)[nH]c(=O)c2C1
2. CC(=O)N1CC[C@H]2OCC[C@@H](C(=O)Nc3cccnc3C)[C@H]2C1
3. COc1cccc(N2CCN(C(=O)c3noc4c3CCCC4)CC2)c1
4. Cn1cc(CN2C[C@@H]3COC[C@H](C(=O)Nc4cccnc4)[C@@H]3C2)cn1

OUT:
["0.279%", "0.0861%", "11.7%", "9.34%"]

----------
Assignment: determine reported cytotoxicity at 10 µM for the given compounds.
Assay: Toxicity liver stage against HepG2, at 10uM
Assay type: cell-based
Parameters: test concentration 10 uM, cell line HepG2-A16-CD81EGFP
Conditions: human, HepG2-A16-CD81EGFP cells; read-out: INHIBITION
Give bare numbers, in %.

CCNC(=O)c1ccc2c(c1)nc1n2CCN(C(C)C)C1 ... 9.35
Cc1nc(CSCCC(=O)NCc2cccnc2N(C)C)cs1 ... -9.19
N#Cc1c(F)cccc1Nc1cnn(CC(N)=O)c1 ... 6.25

I'm hoping you can list cytotoxicity at 10 µM for every compound here, please.
1. Cc1cc(CN2CC[C@H]3OCC[C@@]3(C(=O)NCc3ccco3)C2)no1
2. CSc1nccc(N2CCC(NCCN3CCOCC3)CC2)n1
3. CC(C)(C)OC(=O)Cn1nc(C2CC2)cc(C(F)(F)F)c1=O

OUT:
1: 6.73; 2: -49.5; 3: -8.96

----------
Assay: Toxicity liver stage against HepG2, at 10uM
Format: cell-based
Set-up: test concentration 10 uM, cell line HepG2-A16-CD81EGFP
Conditions: human, HepG2-A16-CD81EGFP cells; read-out: INHIBITION
recorded metric: cytotoxicity at 10 µM (%)
Numbers only, in %.

Reference set, count: 10
CCOCC(=O)N1CCC2(CC1)COC(COCc1ccccn1)C2 (stereo not drawn) ... -127
COc1cc(OC)cc(C2SCC(=O)Nc3ccsc32)c1 (stereo not drawn) ... -1.16
CC(C)Oc1ccccc1CNC(=O)N(C)CC(F)F ... -41.5
CNC(=O)c1ccc(C(=O)N2CCCC2c2c(C)nn(C)c2C)cn1 (stereo not drawn) ... -12.8
Cn1cc(C(=O)CC2CCCN2C(=O)c2c[nH]c3ccccc23)cn1 (stereo not drawn) ... -1.39
COc1cccc(CCNC(=O)CCS(=O)(=O)C2CCCC2)c1 ... 2.2
CNc1ccc(C2CN(c3cc(C)nc(N)n3)CCO2)nc1 (stereo not drawn) ... 4.72
CNC(=O)N1CCOC(C)(c2cnn(C)c2)C1 (stereo not drawn) ... -0.717
CCc1nccn1CC(=O)N1CCN(C2CCc3ccccc3C2)CC1 (stereo not drawn) ... -119
CNC(=O)CN1CCN(C(=O)Nc2ccc(C)s2)CC1 ... -13.3

# per-item lookup of cytotoxicity at 10 µM; items listed below
1. Nc1ccnc(N2CCC(Cc3ccccc3Cl)(C(=O)O)CC2)n1
2. O=C(c1ccncc1)N1CCC(O)(Cn2ccc3ccncc32)CC1
3. CC(=O)N1CCC(Cc2cnc(Nc3cc(C)on3)cn2)CC1
4. O=C(NC1CC1)c1cc(C(F)(F)F)cc(C(F)(F)F)n1
5. CCNCCOc1ccc(-c2cc(N)nc3[nH]ccc23)cc1
6. COc1ccc(-n2cc(CCO)cn2)cc1C

OUT:
[2.8, 1.93, 3.48, 6, 24.3, -12.4]

For every item in the list below, what is its measured cytotoxicity at 10 µM?
1. CCCn1cc(C(=O)n2nc(C)cc2C)c(S(=O)(=O)N2CCSCC2)n1
2. N#Cc1ccc(CCC(=O)N2CCC(CN3CCOCC3)CC2)cc1
3. Cc1cc(C(=O)N(C)Cc2cccs2)nc(N2CCCCC2)n1
4. CCN(C)Cc1cnc(S(=O)(=O)CC)n1CCOC
5. c1cc(CNCc2ccnc(N3CCOCC3)c2)c2c(c1)OCO2

OUT:
[-10.1, -4.97, 17.5, 4.38, 2.75]

Provide cytotoxicity at 10 µM values for the following items, in order.
1. COc1ccccc1C1(CNCc2ccc(C#N)cc2)CCOCC1
2. Cc1nc(C)n(CC2CCCN(CCc3ccccn3)C2)n1 (stereo not drawn)
3. Cc1[nH]c(=O)sc1S(=O)(=O)N1CCCC1C(=O)NCc1ccsc1 (stereo not drawn)
4. O=c1[nH]nc2c(N3CCOCC3)nccn12
5. O=S(=O)(C1CC1)N1C[C@@H]2CN(Cc3ccoc3)CCO[C@@H]2C1
6. COc1cccc(C(=O)Nc2ccc(OCCC(N)=O)cc2)c1OC
7. COc1ccc(CN(C(=O)C(C)C)c2cnn(C)c2)c(OC)c1

OUT:
[7.62, -1.59, 2.78, 9.73, -142, 4.19, 3.2]

----------
Assay: Toxicity liver stage against HepG2, at 10uM
Type: cell-based
Parameters: test concentration 10 uM, cell line HepG2-A16-CD81EGFP
Conditions: human, HepG2-A16-CD81EGFP cells; read-out: INHIBITION
Would you mind telling me the reported cytotoxicity at 10 µM of each entry?
Answers are plain numbers, in %.

Study these solved cases before continuing.
Cc1ccc(S(C)(=O)=O)cc1C(=O)N(C)Cc1ccco1 ... 0.0194
CCn1c(=O)n(CCC(=O)N(C)Cc2ccc(C)o2)c2ccccc21 ... -2.42
Cn1ncc2c1CN(Cc1ccccc1F)CC2COCC1CC1 (configuration not stated) ... 1.47
CCCN1CCN(C(=O)Cn2nc(C(F)(F)F)c(Br)c2C2CC2)CC1 ... 2.2
CC(=O)NCC(=O)N1Cc2nccn2CC(Cn2cccn2)C1 (configuration not stated) ... 2.44
c1coc(-c2noc(CN3CCc4c(ncn4C4CC4)C3)n2)c1 ... -8.12
O=C(CCc1cccc(C2CCNCC2)n1)N1CCCCC1 ... -4.78
Cc1cc(C[C@@H]2COC[C@H]2NCc2ccccc2C(F)(F)F)on1 ... -6.15

Take each entry in turn and give its cytotoxicity at 10 µM.
1. Cc1cc(CN2CCC(CNC(=O)c3ccc4[nH]cnc4c3)C2)[nH]n1 (configuration not stated)
2. N#CCCN(Cc1cccnc1)C(=O)c1cccc(-n2cnnn2)c1
3. COCCc1noc(CN2CCCCC2Cn2nc(C)cc2C)n1 (configuration not stated)
4. COc1ccc(CN2CCCC3(CC2)CNC(=O)O3)cc1OC (configuration not stated)
5. O=C1CC2(CCN(c3nncs3)C2)CN1c1ccccc1 (configuration not stated)
6. CCCC(C)NC(=O)CCN1C(=O)CCc2cc(F)ccc21 (configuration not stated)
7. CCc1cnc(CNC(=O)N2CCCC(C(=O)NC)C2)s1 (configuration not stated)

OUT:
-145
2.99
0.962
5.75
-8.25
8.17
19.8

Fill in cytotoxicity at 10 µM for each of the 8 molecules listed.
1. CNC(=O)CN(C)C1CCN(c2ccc(Cl)cc2)CC1
2. OC1(CNCCN2CCc3ccccc32)CNCCOC1 (configuration not stated)
3. Cn1c2ccc(F)cc2c2ncn(CCCN(CCO)CCO)c(=O)c21
4. Cc1noc(C)c1CN1CCOC2(CCCN(c3nccs3)C2)C1 (configuration not stated)
5. Cc1nnc(CN(C)C2CCN(CCc3cccs3)C2)n1C (configuration not stated)
6. N#Cc1cccc(CN2CC[C@@H]3[C@@H]2CC(=O)N3Cc2ccncc2)c1
7. O=C(NCc1ccccn1)[C@H]1COC[C@H]2CN(C3CCCC3)C[C@H]21
8. Cc1cccc(C2CCCN(C(=O)CN3CCOC3=O)C2)c1 (configuration not stated)

OUT:
-1.15
10.7
11.2
2.39
-3.67
-73.7
-73.6
-2.82

Give cytotoxicity at 10 µM for all molecules that follow.
1. Cc1cc(NC(=O)NCc2cccnc2OC(C)C)no1
2. Cc1nccn1CCC1CCCCN1Cc1ccc(N(C)C)nc1 (configuration not stated)
3. CN1C(=O)C[C@@H]2[C@@H]1CCN2C(=O)c1ccc[nH]1
4. Cc1noc(-c2ccnc(N3CCCN(C4CCOCC4)CC3)c2)n1

OUT:
[-11.5, 21.3, -14.8, -2.85]
